Target: recombinant DRB1*1101 (DR1101) (Homo sapiens, UniProt P01903+P01911, A100R/A169T/A87E/I96F/K41T/L162R/M171V/P40S/Q125H/Q178H/Q39Y/Q99D/R42S/S66Y/T262R/V115G/W38E)
Assay: HLA-DR peptide binding competition assay, DR1101
Details: FVIII-A2 peptide binding to DR1101; ± standard error of the mean
pIC50: −log10 of the molar value.
observed property: pIC50

Ask | Entry 685-704 (TVFMSMENPGLWILGCHNSD) [Peptides 685-704] : reported pIC50 = ?
Reply | < 4.00

---

Molecular target: recombinant DRB1*1501 (DR1501) (Homo sapiens, UniProt P01903+P01911)
Test: HLA-DR peptide binding competition assay, DR1501
Settings: read-out: IC50 (concentration displacing 50% reference peptide), DR1501; competition with biotinylated MBP84-102; ± standard error of the mean; NB = no binding
No end group written: not given here.
observed property: IC50 (nM)
Give the value in nM but do not write nM after it.

Ask | Entry NPVVHFFKNIVTPRTPPPS [MBP84-102, reference compound] : reported IC50 = ?
Reply | 50
